Origin of values: ChEMBL document CHEMBL1125029

# TESTED TARGET: Muscarinic acetylcholine receptor
# EXPERIMENTAL DETAILS: Binding activity to muscarinic acetylcholine receptor in rat heart, assayed using [3H]QNB as a radioligand in the presence of Gpp(NH)p.
MEASUREMENT KIND: Ki (µM)

// worked examples, Ki included
COC(=O)N1CCC[C@@H]1C#CCN1CCCC1 5.06
CN(C)CC#C[C@H]1CCCN1C(=O)OC(C)(C)C 19.6
COC(=O)N1CCC[C@H]1C#CCN1CCCC1 5.75
CS(=O)(=O)N1CCC[C@H]1C#CCN1CCCC1.Cl 15.1

I = CC(=O)N1CCC[C@H]1C#CCN(C)C
II = CCOC(=O)N1CCC[C@H]1C#CCN1CCCC1
Challenge: Between the two listed entries I and II , which has its Ki at the higher number? Label of pick, please.
Response given: I
(I: 175 µM, II: 1 µM)
